System: MS2 coat protein
experiment_description: apparent KD of MS2 coat protein, switch ON state; designed switch direction (-1 OFF switch, 1 ON switch): -1; higher = weaker reporter binding
condition_set: FMN input: 0 or 200 uM; Eterna round: R93 (includes R88 designs)
value_kind: apparent KD of MS2 coat protein (nM)
Give a bare numeral; the unit nM is implied.

Check out these entries, answers already filled in.
In [3]: df
Out[3]:
                              sequence_text  test_result
0  AAAUAGACAGGAUAUGCAUGAAAAUUAAAAAAAAAAAAAAAACAUGAGGAUCACCCAUGUAGAAGGGUCAAAAA [Exclusion 2 - Omei 1]         66.6
1  AAAAAACAUGAGGAUCACCCAUGUGAGGAUAUCCUGGUUGAAAAAAAAAAAACAACCAGGAGAAGGCACAAAAA [EXCL-I]         45.2
2  AAAAAACAUGAGGAUCACCCAUGUGAGGAUAUGCAAAACCCAUAUAAAAAGGGAAAAAGUAGAAGGCGCAAAAA [wbt round 1 mod 9]         20.5

Retrieve apparent KD of MS2 coat protein measured for AAAAAGUCAGGAUAUGUGAAAAAAAAAAAAAAAAAAAAAAAACAGAAGGGACAUGAGGAUCACCCAUGUAAAAA [water's exclusion 4 2nd] and print it.
60
